target: EGFR L858R mutant (Homo sapiens, UniProt P00533, L858R)
Sequence (P00533 669-1210 L858R limits assumed): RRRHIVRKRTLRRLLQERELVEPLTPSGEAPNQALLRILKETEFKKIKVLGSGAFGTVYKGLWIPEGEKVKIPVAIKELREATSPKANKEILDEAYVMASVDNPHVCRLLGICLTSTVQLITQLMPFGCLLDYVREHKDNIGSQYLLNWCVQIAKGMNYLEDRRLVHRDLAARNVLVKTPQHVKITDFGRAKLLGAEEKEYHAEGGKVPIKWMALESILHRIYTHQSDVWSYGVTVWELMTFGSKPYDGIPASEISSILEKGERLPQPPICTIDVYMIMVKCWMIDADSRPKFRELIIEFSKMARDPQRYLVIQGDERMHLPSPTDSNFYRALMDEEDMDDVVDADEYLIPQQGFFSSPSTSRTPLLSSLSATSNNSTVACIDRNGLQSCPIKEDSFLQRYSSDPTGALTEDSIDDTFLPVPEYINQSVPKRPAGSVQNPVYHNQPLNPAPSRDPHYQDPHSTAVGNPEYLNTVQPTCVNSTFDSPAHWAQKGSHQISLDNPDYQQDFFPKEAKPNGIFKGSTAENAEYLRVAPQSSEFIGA
test details: Z'-LYTE FRET kinase assay, time dependent ([…] at […] min, […] at […] h); also labelling of recombinant protein, LC-MS/MS site mapping, CETSA, competitive pull-down
quantity name: IC50 (nM)
The reply should contain only the number, in nM.

IC50 reading for `C#Cc1cccc(Nc2ncnc3cc(OC)c(OCCCCC(=O)OC(=C)N(C)S(=O)(=O)c4ccc(C)cc4)cc23)c1` : 1.3

----------
target: CDK5 (Homo sapiens, UniProt Q00535)
Construct: CDK5/p25 (h); with p25
Sequence (Q00535 whole entry): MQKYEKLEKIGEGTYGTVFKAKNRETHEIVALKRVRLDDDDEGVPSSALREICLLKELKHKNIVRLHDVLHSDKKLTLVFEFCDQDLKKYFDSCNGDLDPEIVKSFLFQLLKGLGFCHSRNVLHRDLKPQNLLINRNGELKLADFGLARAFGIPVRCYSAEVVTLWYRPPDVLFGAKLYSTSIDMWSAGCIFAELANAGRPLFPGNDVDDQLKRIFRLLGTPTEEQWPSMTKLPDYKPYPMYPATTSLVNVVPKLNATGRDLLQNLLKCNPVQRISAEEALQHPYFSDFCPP
Sequence (Q15078 99-307 partner limits assumed): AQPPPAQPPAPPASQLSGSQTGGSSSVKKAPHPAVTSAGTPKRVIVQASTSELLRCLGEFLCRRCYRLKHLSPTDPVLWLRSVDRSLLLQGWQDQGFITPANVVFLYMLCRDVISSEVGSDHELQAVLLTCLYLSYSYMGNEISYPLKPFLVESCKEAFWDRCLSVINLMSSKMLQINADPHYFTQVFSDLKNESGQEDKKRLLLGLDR
test details: radiometric kinase assay ([…]-ATP, histone H1); also K33R pull-down/WB
Type: biochemical
quantity name: IC50

IC50 reading for C#CCNC(=O)c1cc(Nc2cc(C3CC3)[nH]n2)nc(N2CCN(C(=O)CCC(=O)OC(=C)N(C)S(=O)(=O)c3ccc(C)cc3)CC2)n1 [X1] : 2 to 6 µM
